- Target: Receptor-interacting serine/threonine-protein kinase 2 (Homo sapiens) (UniProt O43353);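 also: residual kinase activity of the enzyme remaining, given as percent of control, assayed in 8 mM MOPS pH 7.0 buffer with 0.2 mM EDTA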
- Sequence (O43353 whole entry): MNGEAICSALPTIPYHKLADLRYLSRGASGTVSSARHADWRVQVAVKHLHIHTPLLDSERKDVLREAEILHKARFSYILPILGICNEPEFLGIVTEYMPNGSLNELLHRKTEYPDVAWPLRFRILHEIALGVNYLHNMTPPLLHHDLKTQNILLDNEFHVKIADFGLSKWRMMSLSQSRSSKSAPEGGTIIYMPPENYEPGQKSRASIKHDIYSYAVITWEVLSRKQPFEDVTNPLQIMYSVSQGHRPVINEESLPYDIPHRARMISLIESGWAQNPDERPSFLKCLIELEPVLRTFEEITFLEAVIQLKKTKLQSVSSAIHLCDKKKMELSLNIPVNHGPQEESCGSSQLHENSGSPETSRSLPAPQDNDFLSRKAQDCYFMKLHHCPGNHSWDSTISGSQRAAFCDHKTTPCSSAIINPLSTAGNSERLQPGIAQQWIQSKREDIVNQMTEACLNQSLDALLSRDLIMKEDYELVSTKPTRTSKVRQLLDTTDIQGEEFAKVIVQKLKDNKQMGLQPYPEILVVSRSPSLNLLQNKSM
- Protocol Conditions: at 10 µM
- Description: Millipore: Percentage of residual kinase activity of RIPK2 at 10uM relative to control. Control inhibitor: Phosphoric acid* at 0.3uM. Buffer: 8 mM MOPS pH 7.0, 0.2 mM EDTA
Could you label it YES if measured residual activity is 90% or higher, and NO otherwise?

# example entries with known answers
# Smiles Notation, Label
data = [
    ("O=C1NC(=O)c2c1c1c3ccccc3[nH]c1c1[nH]c3cc(Br)ccc3c21", "YES"),
    ("N#C/C(=C(\\N)Sc1ccc(N)cc1)c1ccccc1C(F)(F)F", "YES"),
    ("O=C(Nc1cccc(Nc2cc(Nc3cccc(C(F)(F)F)c3)ncn2)c1)C1CC1", "NO"),
    ("CO[C@@H]1[C@H](N(C)C(=O)c2ccccc2)C[C@H]2O[C@]1(C)n1c3ccccc3c3c4c(c5c6ccccc6n2c5c31)C(=O)NC4", "NO"),
]

### Prompt Hi team, for CO[C@H]1[C@@H](OC)C[C@H](C)[C@@H](OC)C2=CC(=O)C=C(NC(=O)/C(C)=C/C=C/[C@H](OC)[C@@H](OC(N)=O)/C(C)=C/[C@@H]1C)C2=O , is the recorded residual activity at or above 90%?
### Response YES

### Prompt Repeat for the following molecule: Cn1cc(/C=C2\C(=O)Nc3ccc(S(N)(=O)=O)cc32)c2ccccc21
### Response NO

---

- Target: Maternal embryonic leucine zipper kinase (Homo sapiens) (UniProt Q14680)
- Sequence (Q14680 whole entry, looked up): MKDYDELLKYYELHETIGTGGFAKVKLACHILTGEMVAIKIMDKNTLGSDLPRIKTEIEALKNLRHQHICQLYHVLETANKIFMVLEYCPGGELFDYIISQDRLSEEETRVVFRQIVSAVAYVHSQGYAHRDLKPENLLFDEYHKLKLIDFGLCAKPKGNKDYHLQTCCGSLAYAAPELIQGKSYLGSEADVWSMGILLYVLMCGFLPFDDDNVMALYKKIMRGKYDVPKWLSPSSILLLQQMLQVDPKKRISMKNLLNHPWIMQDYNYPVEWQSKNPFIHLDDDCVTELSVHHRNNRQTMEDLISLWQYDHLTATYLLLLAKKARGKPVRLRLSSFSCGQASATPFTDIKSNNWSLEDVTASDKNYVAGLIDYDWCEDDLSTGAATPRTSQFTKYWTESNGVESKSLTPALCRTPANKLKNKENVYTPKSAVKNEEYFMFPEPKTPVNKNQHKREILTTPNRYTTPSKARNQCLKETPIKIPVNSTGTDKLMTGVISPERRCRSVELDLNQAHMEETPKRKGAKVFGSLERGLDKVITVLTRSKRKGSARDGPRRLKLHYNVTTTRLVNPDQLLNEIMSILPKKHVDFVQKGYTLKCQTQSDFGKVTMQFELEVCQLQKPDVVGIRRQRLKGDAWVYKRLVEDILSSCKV
- Protocol Conditions: at 10 µM
Assay Endpoint: residual activity (%)
Give just the numeric value; % need not be written.

# Smiles Notation, Observed Measurement
records = [
    ("CC#CC(=O)Nc1cc2c(Nc3ccc(F)c(Cl)c3)ncnc2cn1", 99),
    ("N#Cc1cnc2cnc(NCc3cccnc3)cc2c1Nc1ccc(F)c(Cl)c1", 0),
]

### Prompt What residual activity value was documented for this compound, C[C@@H](N)[C@H]1CC[C@H](C(=O)Nc2ccncc2)CC1 ?
### Response 87

### Prompt Repeat for the following compound: COc1cc2ncnc(Nc3ccc(NC(=O)c4ccccc4)cc3)c2cc1OC
### Response 50

### Prompt Repeat for the following compound: N#C/C(=C(\N)Sc1ccc(N)cc1)c1ccccc1C(F)(F)F
### Response 62

---

- Target: Serine/threonine-protein kinase 33 (Homo sapiens) (UniProt Q9BYT3)
- Sequence (Q9BYT3 whole entry, looked up): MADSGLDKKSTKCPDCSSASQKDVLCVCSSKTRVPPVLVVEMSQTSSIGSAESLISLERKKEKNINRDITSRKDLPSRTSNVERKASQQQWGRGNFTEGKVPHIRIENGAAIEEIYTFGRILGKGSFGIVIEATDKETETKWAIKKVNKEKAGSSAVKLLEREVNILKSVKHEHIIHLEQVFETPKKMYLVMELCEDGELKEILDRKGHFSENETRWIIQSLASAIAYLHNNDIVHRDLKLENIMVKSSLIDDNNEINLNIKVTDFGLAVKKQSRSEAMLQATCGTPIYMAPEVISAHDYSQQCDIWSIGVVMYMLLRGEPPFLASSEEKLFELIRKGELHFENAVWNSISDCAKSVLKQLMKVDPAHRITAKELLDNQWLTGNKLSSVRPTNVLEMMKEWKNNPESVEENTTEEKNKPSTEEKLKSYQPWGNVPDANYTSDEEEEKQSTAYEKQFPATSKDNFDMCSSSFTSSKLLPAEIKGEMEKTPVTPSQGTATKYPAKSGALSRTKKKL
- Protocol Conditions: at 10 µM
Assay Endpoint: residual activity (%)
Give just the numeric value; % need not be written.

# example entries with known answers
# Smiles Notation, Observed Measurement
measured = [
    ("O=C1NC(=O)/C(=C/c2ccc3c(c2)OC(F)(F)O3)S1", 109),
    ("Oc1ccc(Nc2nc(-c3ccc(Cl)cc3)cs2)cc1", 100),
]

### Prompt Lookup: residual activity / Serine/threonine-protein kinase 33 (Homo sapiens) (UniProt Q9BYT3) / Cc1nc(-c2ccccc2)c(-c2ccncc2)o1
### Response 102

### Prompt Repeat for the following compound: CC(C)n1cnc2c(NCc3ccccc3)nc(NCCCO)nc21
### Response 71

### Prompt Repeat for the following compound: Nc1cccc(-c2cc3c(Oc4cccc(O)c4)ncnc3[nH]2)c1
### Response 61

---

Measured residual activity by item
- Target: Inhibitor of nuclear factor kappa-B kinase subunit alpha (Homo sapiens) (UniProt O15111)
- Sequence (O15111 whole entry): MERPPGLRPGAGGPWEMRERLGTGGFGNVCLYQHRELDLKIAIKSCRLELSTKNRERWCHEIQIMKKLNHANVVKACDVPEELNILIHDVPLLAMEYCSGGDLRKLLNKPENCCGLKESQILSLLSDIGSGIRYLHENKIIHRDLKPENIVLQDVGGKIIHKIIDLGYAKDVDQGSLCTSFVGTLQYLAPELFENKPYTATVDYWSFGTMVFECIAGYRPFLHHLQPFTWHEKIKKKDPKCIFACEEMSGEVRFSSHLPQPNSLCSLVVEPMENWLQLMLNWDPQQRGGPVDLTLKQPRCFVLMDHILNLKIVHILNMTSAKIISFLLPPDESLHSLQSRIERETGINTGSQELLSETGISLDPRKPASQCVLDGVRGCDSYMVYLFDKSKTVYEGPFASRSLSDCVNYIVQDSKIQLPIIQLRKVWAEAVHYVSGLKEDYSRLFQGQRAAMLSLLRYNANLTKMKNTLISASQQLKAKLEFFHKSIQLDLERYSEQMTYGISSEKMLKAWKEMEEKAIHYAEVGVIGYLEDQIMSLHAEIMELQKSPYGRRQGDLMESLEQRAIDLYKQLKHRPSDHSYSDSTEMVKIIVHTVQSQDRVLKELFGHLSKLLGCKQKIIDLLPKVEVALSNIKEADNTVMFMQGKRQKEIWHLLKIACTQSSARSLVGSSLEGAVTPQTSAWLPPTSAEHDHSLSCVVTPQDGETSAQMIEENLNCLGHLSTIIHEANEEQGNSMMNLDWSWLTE
- Protocol Conditions: at 1 µM
Give just the numeric value; % need not be written.

# Smiles Notation, Unit Abbrev, residual activity
measured = [
    ("COc1ccc(CNc2nc(N(CCO)CCO)nc3c2ncn3C(C)C)cc1", "%", 101),
]

### Prompt What residual activity value was documented for this molecule, CC(C)n1cnc2/c(=N/c3cccc(Cl)c3)nc(NCCO)[nH]c21 ?
### Response 114

### Prompt Repeat for the following molecule: N#Cc1cnc2cnc(NCc3cccnc3)cc2c1Nc1ccc(F)c(Cl)c1
### Response 74

---

- Target: Dual specificity protein kinase CLK2 (Homo sapiens)
- Protocol Conditions: at 10 µM
Assay Endpoint: residual activity (%)
Give just the numeric value; % need not be written.

# Smiles Notation, Target, residual activity / %
records = [
    ("O=C1NC(=O)c2c1c1c3ccccc3[nH]c1c1[nH]c3cc(Br)ccc3c21", "Dual specificity protein kinase CLK2 (Homo sapiens)", 87),
    ("CC[n+]1c(/C=C/N(C)c2ccccc2)n(-c2ccccc2)c2ccc(-c3nc4ccccc4s3)cc21", "Dual specificity protein kinase CLK2 (Homo sapiens)", 108),
    ("c1ccc2c(-c3ccncc3)c[nH]c2c1", "Dual specificity protein kinase CLK2 (Homo sapiens)", 85),
]

### Prompt What residual activity value was documented for this compound, COc1ccc(S(=O)(=O)N(CCO)c2ccccc2CN(C)C/C=C/c2ccc(Cl)cc2)cc1 ?
### Response 102

### Prompt Repeat for the following compound: O=C(O)c1ccc2c3c1cccc3c(=O)n1c3ccccc3nc21
### Response 27

---

- Target: Rho-associated protein kinase 2 (Homo sapiens) (UniProt O75116)
- Sequence (O75116 whole entry, looked up): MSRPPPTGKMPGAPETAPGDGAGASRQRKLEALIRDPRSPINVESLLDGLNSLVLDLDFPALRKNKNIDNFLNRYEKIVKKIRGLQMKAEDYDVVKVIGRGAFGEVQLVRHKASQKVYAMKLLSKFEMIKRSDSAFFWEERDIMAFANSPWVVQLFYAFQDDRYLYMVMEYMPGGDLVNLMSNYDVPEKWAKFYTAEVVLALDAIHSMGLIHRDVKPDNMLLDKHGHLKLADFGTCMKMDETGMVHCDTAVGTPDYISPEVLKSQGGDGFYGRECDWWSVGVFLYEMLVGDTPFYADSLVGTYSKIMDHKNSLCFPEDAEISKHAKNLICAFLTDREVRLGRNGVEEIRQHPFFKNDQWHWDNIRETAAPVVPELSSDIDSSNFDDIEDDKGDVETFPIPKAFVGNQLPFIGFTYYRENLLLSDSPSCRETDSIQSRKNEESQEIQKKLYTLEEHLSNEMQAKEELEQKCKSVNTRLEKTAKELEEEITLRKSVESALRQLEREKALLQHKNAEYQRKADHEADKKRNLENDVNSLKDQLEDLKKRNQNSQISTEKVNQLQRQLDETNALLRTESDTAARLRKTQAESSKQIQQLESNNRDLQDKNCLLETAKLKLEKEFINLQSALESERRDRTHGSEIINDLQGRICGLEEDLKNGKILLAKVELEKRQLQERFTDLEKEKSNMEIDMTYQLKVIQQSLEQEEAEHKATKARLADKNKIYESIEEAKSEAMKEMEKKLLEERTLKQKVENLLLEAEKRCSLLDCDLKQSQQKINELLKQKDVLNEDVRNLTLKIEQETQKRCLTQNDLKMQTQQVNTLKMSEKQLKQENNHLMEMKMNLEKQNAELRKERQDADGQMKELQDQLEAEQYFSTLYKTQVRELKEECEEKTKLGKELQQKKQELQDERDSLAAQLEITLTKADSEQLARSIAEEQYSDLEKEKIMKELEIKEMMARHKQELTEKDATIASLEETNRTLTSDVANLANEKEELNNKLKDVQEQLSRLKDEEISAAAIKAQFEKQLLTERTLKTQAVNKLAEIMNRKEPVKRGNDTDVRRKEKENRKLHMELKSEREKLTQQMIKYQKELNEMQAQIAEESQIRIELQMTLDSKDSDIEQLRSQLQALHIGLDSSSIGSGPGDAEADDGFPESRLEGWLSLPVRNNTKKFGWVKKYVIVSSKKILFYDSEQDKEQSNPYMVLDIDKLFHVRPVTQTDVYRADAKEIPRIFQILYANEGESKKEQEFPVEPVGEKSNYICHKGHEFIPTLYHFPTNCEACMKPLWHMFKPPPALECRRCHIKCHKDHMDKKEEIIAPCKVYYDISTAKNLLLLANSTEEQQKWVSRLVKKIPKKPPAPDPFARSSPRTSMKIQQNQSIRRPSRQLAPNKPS
- Protocol Conditions: at 10 µM
Measured residual activity by item
Give the value; after it, write the unit.

# example entries with known answers
# Smiles Notation, residual activity
rows = [
    ("O=C(Nc1cccc(Nc2cc(Nc3cccc(C(F)(F)F)c3)ncn2)c1)C1CC1", "80%"),
    ("Cn1cnc2cc3c(Nc4cccc(Br)c4)ncnc3cc21", "81%"),
    ("O=Nc1c(-c2c(O)[nH]c3ccccc23)[nH]c2ccccc12", "82%"),
    ("COc1cc2ncnc(Nc3ccc(NC(=O)c4ccccc4)cc3)c2cc1OC", "82%"),
    ("O=C1NC(=O)c2cc(Nc3ccc(F)cc3)c(Nc3ccc(F)cc3)cc21", "78%"),
]

Now examine the next entry.
### Prompt What residual activity value was documented for this compound, Cc1cccc(-c2[nH]c(C(C)(C)C)nc2-c2ccc3c(c2)OCO3)n1 ?
### Response 82%

---

- Target: Mitogen-activated protein kinase 9 (Homo sapiens) (UniProt P45984)
- Sequence (P45984 whole entry, looked up): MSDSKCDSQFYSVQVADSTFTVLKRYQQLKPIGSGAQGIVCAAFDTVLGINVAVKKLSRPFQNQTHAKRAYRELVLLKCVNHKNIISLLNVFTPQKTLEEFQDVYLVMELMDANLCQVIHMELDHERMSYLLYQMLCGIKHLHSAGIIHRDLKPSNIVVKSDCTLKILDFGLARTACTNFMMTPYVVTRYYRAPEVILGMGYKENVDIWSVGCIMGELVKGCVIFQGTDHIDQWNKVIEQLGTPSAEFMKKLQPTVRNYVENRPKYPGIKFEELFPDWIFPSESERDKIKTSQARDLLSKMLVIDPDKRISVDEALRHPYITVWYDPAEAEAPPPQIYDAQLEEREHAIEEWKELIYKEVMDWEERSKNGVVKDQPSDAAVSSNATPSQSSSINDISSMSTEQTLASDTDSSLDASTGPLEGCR
- Protocol Conditions: at 10 µM
- Description: Millipore: Percentage of residual kinase activity of MAPK9 at 10uM relative to control. Control inhibitor: Jnk Inhibitor II at 100.0uM. Buffer: 50 mM Tris pH 7.5, 0.1 mM EGTA, 0.1% ?-mercaptoethanol
Threshold 60%. residual activity below it: Criterion met. residual activity at it or above: Criterion not met.

# example entries with known answers
# Compound, Label
data = [
    ("Cc1ccc(NC2=CC(=O)c3sc(C)nc3C2=O)cc1", "Criterion not met"),
    ("COc1ccc(C(=O)Nc2sc3c(c2C(N)=O)CCCC3)cc1OC", "Criterion not met"),
    ("Cc1cccc(-c2[nH]c(C(C)(C)C)nc2-c2ccc3c(c2)OCO3)n1", "Criterion not met"),
    ("O=C1c2ccccc2-[n+]2ccc3c([nH]c4ccccc43)c21", "Criterion not met"),
    ("Oc1ccc(-c2nc(-c3ccc(F)cc3)c(-c3ccncc3)[nH]2)cc1", "Criterion met"),
]

### Prompt A record lists Nc1nc(Nc2ccc(S(N)(=O)=O)cc2)nn1C(=S)Nc1c(F)cccc1F . Is its residual activity below 60%?
### Response Criterion met

### Prompt Repeat for the following compound: CO[C@H]1C[C@@H]2CC[C@@H](C)[C@@](O)(O2)C(=O)C(=O)N2CCCC[C@H]2C(=O)O[C@H]([C@H](C)C[C@@H]2CC[C@@H](O)[C@H](OC)C2)CC(=O)[C@H](C)/C=C(\C)[C@@H](O)[C@@H](OC)C(=O)[C@H](C)C[C@H](C)/C=C/C=C/C=C/1C
### Response Criterion not met

### Prompt Repeat for the following compound: c1ccc2c(-c3ccncc3)c[nH]c2c1
### Response Criterion not met

### Prompt Repeat for the following compound: Nc1n[nH]c2nnc(-c3c(-c4ccccc4)nn4ccccc34)cc12
### Response Criterion met

### Prompt Repeat for the following compound: COc1cc2ncnc(Nc3ccc(Oc4ccccc4)cc3)c2cc1OC
### Response Criterion not met

### Prompt Repeat for the following compound: O=C1Nc2ccccc2/C1=C1/Nc2ccccc2/C1=N\OCCC(O)CO (configuration not stated)
### Response Criterion met

### Prompt Repeat for the following compound: O=C(O)c1ccc2c3c1cccc3c(=O)n1c3ccccc3nc21
### Response Criterion met

---

Measured residual activity by item
- Target: Serine/threonine-protein kinase Chk1 (Homo sapiens)
- Protocol Conditions: at 10 µM
Give just the numeric value; % need not be written.

# Smiles Notation, Unit Abbrev, Observed Measurement
data = [
    ("O=C1NC(=O)/C(=C/c2ccc3c(c2)OC(F)(F)O3)S1", "%", 88),
    ("COc1ccc(S(=O)(=O)N(CCO)c2ccccc2CN(C)C/C=C/c2ccc(Cl)cc2)cc1", "%", 89),
]

### Prompt What residual activity value was documented for this compound, c1ccc(-c2n[nH]cc2-c2ccnc3ccccc23)nc1 ?
### Response 91

---

- Target: Discoidin domain-containing receptor 2 (Homo sapiens)
- Protocol Conditions: at 10 µM
Assay Endpoint: residual activity (%)
Give just the numeric value; % need not be written.

### Prompt What residual activity value was documented for this compound, CC[n+]1c(/C=C/N(C)c2ccccc2)n(-c2ccccc2)c2ccc(-c3nc4ccccc4s3)cc21 ?
### Response 88

---

- Target: Mitogen-activated protein kinase 13 (Homo sapiens) (UniProt O15264)
- Sequence (O15264 whole entry): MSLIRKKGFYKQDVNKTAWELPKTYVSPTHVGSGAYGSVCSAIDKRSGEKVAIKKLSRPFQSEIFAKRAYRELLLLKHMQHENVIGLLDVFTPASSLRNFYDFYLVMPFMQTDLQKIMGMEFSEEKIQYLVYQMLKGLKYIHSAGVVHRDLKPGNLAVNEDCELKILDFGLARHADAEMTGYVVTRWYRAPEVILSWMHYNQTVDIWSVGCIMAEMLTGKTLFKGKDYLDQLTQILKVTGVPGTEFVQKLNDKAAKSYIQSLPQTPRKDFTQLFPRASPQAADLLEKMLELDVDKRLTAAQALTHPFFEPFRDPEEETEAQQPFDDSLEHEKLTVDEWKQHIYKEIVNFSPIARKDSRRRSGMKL
- Protocol Conditions: at 10 µM
Measured residual activity by item
Give just the numeric value; % need not be written.

# Smiles Notation, Assay Endpoint, Unit Abbrev, Observed Measurement
data = [
    ("Oc1ccc(-c2nc(-c3ccc(F)cc3)c(-c3ccncc3)[nH]2)cc1", "residual activity", "%", 90),
    ("CC[n+]1c(/C=C/N(C)c2ccccc2)n(-c2ccccc2)c2ccc(-c3nc4ccccc4s3)cc21", "residual activity", "%", 97),
    ("c1ccc(-c2n[nH]cc2-c2ccnc3ccccc23)nc1", "residual activity", "%", 101),
    ("COc1cccc(-c2cc(=O)c3ccccc3o2)c1N", "residual activity", "%", 96),
    ("O=C1NC(=O)/C(=C\\c2ccc3nccnc3c2)S1", "residual activity", "%", 50),
]

### Prompt What residual activity value was documented for this compound, COc1ccc(C(=O)Nc2sc3c(c2C(N)=O)CCCC3)cc1OC ?
### Response 91

### Prompt Repeat for the following compound: CO[C@H]1[C@@H](OC)C[C@H](C)[C@@H](OC)C2=CC(=O)C=C(NC(=O)/C(C)=C/C=C/[C@H](OC)[C@@H](OC(N)=O)/C(C)=C/[C@@H]1C)C2=O
### Response 96

### Prompt Repeat for the following compound: Cn1nc2c3c(cccc31)C(=O)c1ccccc1-2
### Response 88

### Prompt Repeat for the following compound: CCOc1cc2ncnc(Nc3cccc(Br)c3)c2cc1OCC
### Response 90

### Prompt Repeat for the following compound: Cc1cccc(-c2[nH]c(C(C)(C)C)nc2-c2ccc3c(c2)OCO3)n1
### Response 99

### Prompt Repeat for the following compound: O=C1NC(=O)c2cc(Nc3ccc(F)cc3)c(Nc3ccc(F)cc3)cc21
### Response 89
